Below, Ki values reported for 5-hydroxytryptamine receptor 7 (Homo sapiens) across several publications.
parameter.measured: Ki (nM)

Known results for compounds:
Cc1c(C(=O)NCCN(C)C)cc(Cc2ccc(F)cc2)n1CCc1ccc(F)cc1 :: 1.8
CCN(CCN1CCC(c2noc3cc(F)ccc23)CC1)C(=O)C(C)CO (stereo not drawn) :: 1.1
CCN(CCN1CCC(c2c[nH]c3ccccc23)CC1)C(=O)[C@@H](C)O :: 22.6

A. CCN(CCN1CCC(c2noc3cc(F)ccc23)CC1)C(=O)C1CNCCC1O (stereo not drawn)
B. CCc1c(C)n(Cc2ccc(F)cc2)c2ccc(C(=O)N[C@H]3CCN(C)C3)cc12
C. Cc1cc2c(cc1Cc1ccc(C(=O)NCC3CCCC(CNc4nccc(NCC5CCCO5)n4)C3)o1)C(C)(C)CCC2(C)C (stereo not drawn)
D. CCN(CCN1CCC(c2noc3cc(Cl)ccc23)CC1)C(=O)[C@H](C)O
E. Cc1c(C(=O)N[C@@H]2CCN(C)C2)c(C)n(CCc2ccc(F)cc2)c1C(C)(C)C
// sort entries: Ki, high to low Your task in answering is to list the labels in the requested order.
C, D, E, B, A
(C: 1800 nM, D: 26.4 nM, E: 8.2 nM, B: 2.6 nM, A: 0.9 nM)

P. Cc1c(C)n(Cc2ccc(F)cc2)c2ccc(C(=O)N=C(N)N)cc12
Q. CCN(CCN1CCC(n2ncc3cc(F)ccc32)CC1)S(=O)(=O)C(C)CO (stereo not drawn)
For P and Q , which recorded Ki is lower? Mark your answer with the label of the selected entry.
P
(P: 0.66 nM, Q: 2.4 nM)

a. CCN(CCN1CCC(c2noc3cc(F)ccc23)CC1)C(=O)C1CNCC1O (stereo not drawn)
b. CCN(CCN1CCC(c2noc3cc(F)ccc23)CC1)C(=O)C(O)CCC(=O)OC (stereo not drawn)
c. CCN(CCN1CCC(n2ncc3cc(F)ccc32)CC1)C(=O)CCO
hey, can you rank those compounds up there by Ki? biggest number first please Your answer should be the labels, listed in the requested order.
c, a, b
(c: 9.3 nM, a: 5.4 nM, b: 2.4 nM)

I. CCc1c(C)n(Cc2ccc(F)cc2)c2ccc(C(=O)N[C@@H]3CCN(C)C3)cc12
II. CC(C)N(CCN1CCC(c2noc3cc(F)ccc23)CC1)C(=O)CCO
Task for the reader: decide whether I or II has the larger Ki. Answer format: the label of the selected item.
I
(I: 8 nM, II: 3.8 nM)
